assay: soluble fraction after stress (log2 fold change); higher = more stays soluble; pooled small domains, quantitative proteomics; conditions: stress: 75 degC;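 also: 20 min heating vs room temperature control held 20 min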
Please use Criterion met whenever soluble fraction (log2) is not below -0.7, and Criterion not met whenever it is.

State whether the measured soluble fraction (log2) reaches -0.7, counting equality as reaching it, for HMSARKVTVALHTRDHADRLRRLLKHEGVSADLVAARLSHKLTDHPIEVRVNEDDIPAVLRIIENIEIF
Criterion not met

Hi, just wondering whether HMLKSGSAVAQARDVILEKGVPVHINEILDALGKGDTREAKASLTSSLAAYVRRGEIFTRPAPNTFGLVEL shows soluble fraction (log2) of -0.7 or higher.
Criterion met

Textbook exercise: given the entry HMIQHFARKRRQLELAVQRLSGRMAETNGQVTADMQRLIQQVKALVAELSHVFSRAYLRRVLGGVALVIGS , state whether its soluble fraction (log2) is greater than or equal to -0.7.
Criterion met

Check the entry HMDRSAQVLFLEHARSRLPQRIQWAEELAELLSIGIDSAYRRIRGETALTFNEAVSVSRKYDISLDYLFK : does soluble fraction (log2) equal or exceed -0.7?
Criterion not met

Would you say HMKSLVDLEISIVKKDMNYFVLPKINGEPLLMERISASEYKDFQLGKLSKEDIFQKHYPDYSEENIKNGRG shows soluble fraction (log2) at minimum -0.7?
Criterion met

soluble fraction (log2) >= -0.7 for HMDKGMQTMIDNLHKNTGKTLEEWIALVNRANFAKHGEVISFLKEKHGLTHGYANLVAHRLK ?
Criterion met

Given the entry HMPAKIIKKSFVYNPIHRDTEYLAQFLQGEGQVSASGDKLVYYGTVEDISRIKSVLQSVDTPS , answer whether its soluble fraction (log2) meets or surpasses -0.7.
Criterion met

Evaluate HMDVIDDAQAMEIALEDAGLSMDDLDRYELELHTKRSELVYSIELKSGTEEYEYDLRAADGTILKRDTDF : soluble fraction (log2) at minimum -0.7?
Criterion met

Could you please find out whether HMQPQLFRVIADDGLNIRSGPGPEYPPVAPMLRKGTQVELLQAGDRWSKVEVVGSTDVEGWVNQRYLQAV has soluble fraction (log2) that meets -0.7 or exceeds it?
Criterion met

Is the recorded value of soluble fraction (log2) equal to or greater than -0.7 for this sequence? HMYSDERLQTFMELLPFFVEELSNKHVTRYNVWQNYREAYPNGYGRSQFFFHLGQNLEAKKK
Criterion not met

For this sequence, is measured soluble fraction (log2) -0.7 or higher? HMLDSDARRRGLIEYLSLNGYATMRQLAGEFDVSINTIQRDITYLARYYPLETAYGRYGGGVYFEQNWQ
Criterion not met

Test whether the sequence HMRILDFPALKTEFDQLTKDLMAKYPEDGADRVRAIIETVLGPGKKVGALQPHQAELLAEVNTSLKANL records soluble fraction (log2) of -0.7 or higher.
Criterion met

Answer whether soluble fraction (log2) of HMKIAEALNLRGDADSYERQEAIWLLEHIVGMSALELKYRGEQDLTEDQLQQYRSGLQRLEQGEPLAYVIG is greater than or equal to -0.7.
Criterion not met

Please tell me: is the sequence HMLLQENRKLHSKLEELQLISRAKAVLIEYLKLTEPQAHRYIEKQAMDLGLTRPQVALNILKTYE at or over -0.7 in terms of soluble fraction (log2)?
Criterion not met

Decide: soluble fraction (log2) of HMDEAAGVLTQLRAFIAASNLSPGLRLPPERELAEQLGVTRAELRKALAVLEAEGLLWRQVGKGTFYGARP >= -0.7?
Criterion not met

Textbook exercise: given the entry HMKTLPADPTVKNFSYTVVDGEIYYRENSIMTQIELSDNAKGRVAGMVELRQIVNELIDQQLND , state whether its soluble fraction (log2) is greater than or equal to -0.7.
Criterion not met

Form field: soluble fraction (log2) at least -0.7? Entry: HMDEVHYLADKERGTTWEEILIHADRDIKFLSLSATINNKNEFLEWLVSLRGTTSLIHSSTRPIPLEI
Criterion met

----------
assay: soluble fraction after stress (log2 fold change); higher = more stays soluble; pooled small domains, quantitative proteomics; conditions: stress: 75 degC
Assignment: determine reported soluble fraction (log2) for the given sequences.
Reply with just the number.

So what's the measured soluble fraction (log2) for this one? HMRDLAEAETILDALPTRLRKIVRWRHLEGLSQTEIAARLEISQMHVSRLYRRAISMIHASLADD
-0.289

Query (sequence): HMQPDDELVRLLLIKIFNDKQLKVNPAVINYLLRRIDRSFESINNFVKKIDEFSLEKGRKITVNLVSGFF ; field requested: soluble fraction (log2)
-0.777

I have this sequence here, HMSDSISLTLNGDLRRFRAHATIADLVRDIGLDPVKVAVERNLEIVSRSTLEDVVLADGDRLEIVHFV , and I need its recorded soluble fraction (log2).
-2.23

Find the recorded soluble fraction (log2) belonging to HMLAFDKDDSGAVAEIILVLGRYWMDFSHKKYPAAEGVALRHKGLSHIFTVLRPYLSTPASELIGERLRR and report it.
-0.0618

# query: soluble fraction (log2) of entry HMLETIDIFKVTGGEPFLSKDFLEILDLAIEKDLAKNITLMITTNASKFVKKILDKFIHFKRVEFTVS
0.407

Which value of soluble fraction (log2) has been reported for HMIEDMTINIEERLSLNGDIKKSEYILQYIKPDFIRKVILSPELNKGEIYIYDSKKKVMYLPLFDQVSEEI in the records?
-0.355

Please give the measured soluble fraction (log2) for this sequence: HMNSPSKVIDISQLRKGMFVQLDLGWMSHPFAVGSFKVSTDEQIQTLRGLGLSEVRYIPEKSDPA
-1.2

Reported soluble fraction (log2) for HMLPGERFKVKIAQAGKEKKQGIGYLNDGTMVVIENGIEKVGEEVEAVVIKVIQSSAGKIIFSEVAK : what is it?
0.0862

Fill in the blank: the reported soluble fraction (log2) of HMAFAVWVKLVAIGPNYAQLEIEQGTQRNVRTLRPGDDAPEGVRLLSLTPTHAEVQANGIARKLALGQGMA is ____.
-3.22

# query: soluble fraction (log2) of entry HMGIKLSDRQMQIVEIVKSQQPITSEQVAERLNLTRAALRSDLSILTMAGILEARPKVGYSLTGR
-1.97

Value lookup for soluble fraction (log2); key = HMKGQNRSEITAGARVKVVQKQDQRTGALTEGIVRDILTRSPHHPHGIKVRLESGIVGRVKDVL
-0.312

What value of measured soluble fraction (log2) is listed for HMVSSEGLASGIERMLVEFGLETDKGRRFAMWSLLYMLGSAPDLDVAFKDPRDREAARTFMDLLDQANA ?
-1.57

Query (sequence): HMNIDEIIGKKAVVIESIDNLQGTGKVRYQGMEWTARAEEENDRIEKDAEVEIIAVKGVKLIVKMK ; field requested: soluble fraction (log2)
-0.384

Which value of soluble fraction (log2) has been reported for HMDTLRPLGRYQNVHLTKQELTALQSEFSDWSERIERLSSYMASTGRKYQNHAATIRLWAEKDK in the records?
0.0841

Param item = HMKISDLPAAQVYREIVHAWPKAAAYADLAPINNGGMQRWRDVVHEWVLRGYNPANLRGMLEWYKAGIPTR ; retrieve measured soluble fraction (log2).
-0.731

What value of measured soluble fraction (log2) is listed for HMHDYYDSIDAVTHDKSYESNLVFALKLGYTETQLQKALLKLGKKAREDQILEELIRIQKSSKA ?
-0.362

Entry under review: HMTVLVPNLTGKTLLEAEILLDQAGLKKGDVYSESNKNVPKDHIIRQKPAPNTKIQKGATIDIYRSLGPE . Reported soluble fraction (log2)?
-0.0471

----------
test: soluble fraction after stress (log2 fold change); higher = more stays soluble; pooled small domains, quantitative proteomics; settings: stress: 75 degC
property-name: soluble fraction (log2)
Enter the number alone.

Request the reported soluble fraction (log2) associated with HMVSTSVTVTGDLNVRADSRADSDLVGALIPGQTVTRLAVLDNGWSKIRFDDGAGTVVEGYVLSEYLQADG
0.335

// soluble fraction (log2) lookup, key: HMLEDIDNSIKKEIILEHYDKMLEFHGDYGAIIFRKLLHAYSKGYTGANEFRDLVNQISDKNIMRDLIESF
-0.947

I have this sequence here, HMNREIVVYITGAVDNPGLYRLPLDSRLDDVLKLAVLSTNADREVLNPAQKLKDGQKIVVPYIVE , and I need its recorded soluble fraction (log2).
-0.49

// query soluble fraction (log2) value for entry HMTSKTLSAVEGEGLRLDKFLSNQLPELSRTKIQKMINDGLVFVNNTEAKASLILDGSEFIAYTVPD
-0.243

Recorded soluble fraction (log2) for HMELDLPLEELGLSTRVLHSLKEEGIESVRALLALNLKDLKNIPGIGERSLEEIKEALEKKGFTLK , please?
-0.103

Fill in: soluble fraction (log2) of HMYPDNSGDIQQLAQNIFRQENVSVDRDGLALISSRLGSDHAATRSEIEKLALLAGPGGTLTFETISEVLG is ___
-0.145

Suppose we examine the sequence HMGEEIRTWTDAQGRKIEARMSMLDGDQVLLELKDGRKIPYPLAKLSADDAHYARHFASASASD ; what soluble fraction (log2) value has been reported?
-0.0336

Which value of soluble fraction (log2) has been reported for HMYAPKIETIQVPQDKIREVIGTGGKVIREIVETTGAKIDIGDTGLIKVASSDGEAIRAALDWINSIVAE in the records?
0.278
